SYSTEM_NAME: Prostaglandin G/H synthase 1 (Ovis aries, UniProt P05979)
Sequence (P05979 whole entry): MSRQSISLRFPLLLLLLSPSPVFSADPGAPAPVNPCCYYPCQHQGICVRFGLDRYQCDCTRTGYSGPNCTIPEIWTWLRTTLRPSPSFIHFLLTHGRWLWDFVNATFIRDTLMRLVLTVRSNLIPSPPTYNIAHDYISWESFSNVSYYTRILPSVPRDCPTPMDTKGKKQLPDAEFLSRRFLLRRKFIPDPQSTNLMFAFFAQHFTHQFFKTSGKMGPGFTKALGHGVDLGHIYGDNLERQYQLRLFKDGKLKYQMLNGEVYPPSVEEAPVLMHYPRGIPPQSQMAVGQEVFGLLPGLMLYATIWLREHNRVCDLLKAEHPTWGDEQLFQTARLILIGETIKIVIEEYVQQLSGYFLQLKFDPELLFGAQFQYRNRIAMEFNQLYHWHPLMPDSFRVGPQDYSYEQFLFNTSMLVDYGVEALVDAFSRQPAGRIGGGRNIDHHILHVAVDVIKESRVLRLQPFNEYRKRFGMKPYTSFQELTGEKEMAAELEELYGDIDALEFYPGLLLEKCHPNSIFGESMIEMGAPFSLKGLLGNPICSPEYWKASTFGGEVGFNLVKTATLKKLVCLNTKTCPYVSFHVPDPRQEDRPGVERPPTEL
pIC50: −log10 of the molar value.
PARAMETER_MEASURED: pIC50

1. O=C1CCCC1C1CC(=O)N(c2ccccc2)C1=O (stereo not drawn): 4.52
2. NS(=O)(=O)c1ccc(N2C(=O)CC(CC(=O)c3ccccc3)C2=O)cc1 (stereo not drawn): 4.31
3. NS(=O)(=O)c1ccc(N2C(=O)CC(CC(=O)c3ccccn3)C2=O)cc1 (stereo not drawn): 4.36
4. NS(=O)(=O)c1ccc(N2C(=O)CC(C3CCCCCC3=O)C2=O)cc1 (stereo not drawn): 4.31
5. O=C1CCCCC1C1CC(=O)N(Cc2ccccc2)C1=O (stereo not drawn): 4.20
6. Cc1ccc(C(=O)CC2CC(=O)N(c3ccc(S(N)(=O)=O)cc3)C2=O)cc1 (stereo not drawn): 4.51
7. COc1ccc(C(=O)CC2CC(=O)N(c3ccc(S(N)(=O)=O)cc3)C2=O)cc1 (stereo not drawn): 4.41
8. CC(=O)CC1CC(=O)N(c2ccccc2)C1=O (stereo not drawn): 4.48

---

SYSTEM_NAME: Polyunsaturated fatty acid 5-lipoxygenase (Homo sapiens)
Sequence (P09917 whole entry): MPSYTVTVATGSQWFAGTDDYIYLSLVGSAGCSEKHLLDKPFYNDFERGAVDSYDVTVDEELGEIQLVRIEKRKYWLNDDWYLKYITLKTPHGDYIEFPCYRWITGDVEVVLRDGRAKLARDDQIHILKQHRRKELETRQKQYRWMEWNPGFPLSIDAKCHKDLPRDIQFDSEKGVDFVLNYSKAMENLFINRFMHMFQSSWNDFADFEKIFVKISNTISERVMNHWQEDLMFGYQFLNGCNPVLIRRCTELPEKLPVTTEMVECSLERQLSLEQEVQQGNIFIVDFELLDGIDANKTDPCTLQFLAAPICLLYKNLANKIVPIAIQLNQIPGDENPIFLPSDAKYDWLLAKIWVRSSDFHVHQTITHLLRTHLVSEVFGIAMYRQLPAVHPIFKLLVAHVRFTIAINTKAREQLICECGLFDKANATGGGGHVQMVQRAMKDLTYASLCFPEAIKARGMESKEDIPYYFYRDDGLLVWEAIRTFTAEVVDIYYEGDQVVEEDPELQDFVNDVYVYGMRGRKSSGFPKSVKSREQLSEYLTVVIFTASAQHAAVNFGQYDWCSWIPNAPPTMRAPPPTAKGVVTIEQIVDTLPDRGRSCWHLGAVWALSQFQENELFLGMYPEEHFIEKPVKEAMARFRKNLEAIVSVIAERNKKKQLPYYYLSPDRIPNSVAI
ASSAY_PROCEDURE: Inhibition of recombinant human 5LOX expressed in baculovirus infected Sf insect cells using linoleic acid as substrate preincubated for 5 mins followed by substrate addition
// assign TRUE if IC50 falls strictly below 40 µM, else FALSE (ties count as FALSE)

1) O=C1CCCCC1C1CC(=O)N(c2ccc(Br)cc2)C1=O (configuration not stated): FALSE
2) NS(=O)(=O)c1ccc(N2C(=O)CC(C3CCCCC3=O)C2=O)cc1 (configuration not stated): TRUE
3) NS(=O)(=O)c1ccc(N2C(=O)CC(CC(=O)c3ccccc3)C2=O)cc1 (configuration not stated): TRUE
4) NS(=O)(=O)c1ccc(N2C(=O)CC(CC(=O)c3ccc(Cl)cc3)C2=O)cc1 (configuration not stated): TRUE
5) Cc1ccc(C(=O)CC2CC(=O)N(c3ccc(S(N)(=O)=O)cc3)C2=O)cc1 (configuration not stated): TRUE
6) CC(=O)C(C)(C)C1CC(=O)N(c2ccccc2)C1=O (configuration not stated): FALSE
7) NS(=O)(=O)c1ccc(N2C(=O)CC(C3CCCCCC3=O)C2=O)cc1 (configuration not stated): TRUE
8) CC(=O)CC1CC(=O)N(c2ccccc2)C1=O (configuration not stated): FALSE
9) O=C1CCOCC1C1CC(=O)N(c2ccccc2)C1=O (configuration not stated): TRUE
10) O=C1CCCC1C1CC(=O)N(c2ccccc2)C1=O (configuration not stated): FALSE
11) CC1CCC(=O)C(C2CC(=O)N(Cc3ccccc3)C2=O)C1 (configuration not stated): FALSE
12) O=C1CCCCC1C1CC(=O)N(c2ccccc2)C1=O (configuration not stated): FALSE
13) CC1CCC(=O)C(C2CC(=O)N(c3ccccc3)C2=O)C1 (configuration not stated): FALSE
14) O=C1CCCCC1C1CC(=O)N(Cc2ccccc2)C1=O (configuration not stated): TRUE
15) O=C1CCCCCC1C1CC(=O)N(c2ccccc2)C1=O (configuration not stated): TRUE
16) NS(=O)(=O)c1ccc(N2C(=O)CC(CC(=O)c3ccccn3)C2=O)cc1 (configuration not stated): TRUE
17) COc1ccc(C(=O)CC2CC(=O)N(c3ccc(S(N)(=O)=O)cc3)C2=O)cc1 (configuration not stated): TRUE

---

ASSAY_PROCEDURE: Acute toxicity in ip dosed Swiss albino mouse assessed as mortality administered as single dose
Type: organism-based
RUN_PARAMETERS: in vivo
PARAMETER_MEASURED: LD50 (mg/kg)

1. O=C1CCCCC1C1CC(=O)N(Cc2ccccc2)C1=O (configuration not stated): 1000
2. Cc1ccc(C(=O)CC2CC(=O)N(c3ccc(S(N)(=O)=O)cc3)C2=O)cc1 (configuration not stated): 1000
